Test: Human HepG2 cell viability assay in 384 well format
Format: toxicity, cell-based
Set-up: dose 125 nL, time 70.5 hour; concentration not given beside the values
Conditions: HepG2 cells, read-out: Inhibition
observed.property: cytotoxicity at 70.5 h (%)
Write down the numeric answer in % and omit the unit.

Q. Give a short answer stating reported cytotoxicity at 70.5 h for Cc1cc(CNC(=O)C2CCCCN2C(=O)OC(C)(C)C)no1 (stereo not drawn) .
A. -10.1

Q. Give a short answer stating reported cytotoxicity at 70.5 h for Cc1nc(C(=O)NS(=O)(=O)c2cccc(C#N)c2)cs1 .
A. 17.6

Q. Give a short answer stating reported cytotoxicity at 70.5 h for CC1(C)[C@H]2CC=C(CN3CCCn4nc(CNS(C)(=O)=O)cc4C3)[C@@H]1C2 .
A. -8.88

Q. Give a short answer stating reported cytotoxicity at 70.5 h for NC(=O)c1cn2cc(-c3ccccc3Cl)n(CC3CC3)c(=O)c2n1 .
A. -9.1

Q. Give a short answer stating reported cytotoxicity at 70.5 h for CC(=O)N1CCC(c2cnc(-c3c(C)n[nH]c3C)cn2)CC1 .
A. -3.69

Q. Give a short answer stating reported cytotoxicity at 70.5 h for CCn1ccnc1CNCC1CCN(CC(O)c2ccccc2)CC1 (stereo not drawn) .
A. -11

Q. Give a short answer stating reported cytotoxicity at 70.5 h for CCc1noc(CN2CCC(NC(=O)c3ccc(C)s3)CC2)n1 .
A. -9.12

Q. Give a short answer stating reported cytotoxicity at 70.5 h for O=C(NCCO)Nc1c(F)cc(F)cc1-c1ccccc1 .
A. -10.7

Q. Give a short answer stating reported cytotoxicity at 70.5 h for Cc1nccc(C2CN(Cc3cc[nH]n3)CCO2)n1 (stereo not drawn) .
A. -15.2

Q. Give a short answer stating reported cytotoxicity at 70.5 h for O=C(Nc1cccc(C(F)(F)F)c1)C1CC(=O)N(Cc2ccccn2)C1 (stereo not drawn) .
A. 34.8

Q. Give a short answer stating reported cytotoxicity at 70.5 h for CC1CCN(Cc2ccc(CNC(=O)c3ccn(C)c(=O)c3)cc2)CC1 .
A. -9.84

Q. Give a short answer stating reported cytotoxicity at 70.5 h for CN(CCN1CCOCC1)C(=O)C1(c2ccc(F)cc2F)CCC1 .
A. -2.7

Q. Give a short answer stating reported cytotoxicity at 70.5 h for O=c1c2ccc(Cl)cc2ncn1CCCN1CCCCC1CO (stereo not drawn) .
A. -15.5

Q. Give a short answer stating reported cytotoxicity at 70.5 h for Cc1cnc(-c2nc(NC3CC3)ncc2-c2cc(C)no2)cn1 .
A. 12

Q. Give a short answer stating reported cytotoxicity at 70.5 h for CC(C)NC(=O)N1CCC[C@H]1C(=O)NCCCc1cnn(C)c1 .
A. -4.04

Q. Give a short answer stating reported cytotoxicity at 70.5 h for O=C(CCc1cc(Cl)no1)N1CCCCC1CCn1ccnc1 (stereo not drawn) .
A. -5.27

Q. Give a short answer stating reported cytotoxicity at 70.5 h for c1ccc(-c2cc(CNCCCN3CCCCC3)c3nnnn3c2)cc1 .
A. -0.978

Q. Give a short answer stating reported cytotoxicity at 70.5 h for CN(Cc1ccsc1)C(=O)c1ccc(C2CCCO2)s1 (stereo not drawn) .
A. 30.9

Q. Give a short answer stating reported cytotoxicity at 70.5 h for Clc1ccccc1C1(c2ccnc(-c3ncccn3)n2)CCNCC1 .
A. -12.3

Q. Give a short answer stating reported cytotoxicity at 70.5 h for O=C(C1CCOC1)N1C[C@@H]2CCN(C(=O)c3cscn3)[C@@H]2C1 (stereo partly drawn) .
A. 14

Q. Give a short answer stating reported cytotoxicity at 70.5 h for COc1ccc(S(=O)(=O)NCC(O)c2sccc2C)cc1C (stereo not drawn) .
A. -3.59

Q. Give a short answer stating reported cytotoxicity at 70.5 h for CNC(=O)N1CC[C@@H]2CN(Cc3cccc(OC)c3)S(=O)(=O)[C@@H]2CC1 .
A. -11.1

Q. Give a short answer stating reported cytotoxicity at 70.5 h for COc1ccc(Cl)cc1CS(=O)(=O)Cc1nc(C2CC2)no1 .
A. -5.91
